Data provenance: patent US12264156B2

Assay system SIK1 (Homo sapiens, UniProt P57059); read-out recorded as IC50.

Consider the reported IC50 for these compounds:
COc1cc(-c2cnc3cc(OCCN4CCCC4=O)ccn23)cc(OC(F)F)c1C(=O)NC1CC1
0.01 to 10 nM
COc1cc(-c2cnc3cc(OCCN(C)C)ccn23)cc(OC(F)F)c1C(=O)NC1CC1
100 to 500 nM
COc1cc(-c2cnc3cc(OCC4(F)CN(C(=O)OC(C)(C)C)C4)ccn23)cc2c1C(=O)N(CC(F)(F)F)CC2
100 to 500 nM

// fetch IC50 given entry COc1cc(-c2cnc3cc(OC[C@H]4CCN(CCO)C4)ccn23)cc(OC(F)F)c1C(=O)NC1CC1
10 to 100 nM

// fetch IC50 given entry COc1cc(-c2cnc3cc(OC[C@H]4COCCO4)ccn23)cc2c1C(=O)N(CC(F)(F)F)CC2
100 to 500 nM

// fetch IC50 given entry COc1cc(-c2cnc3cc(OC[C@H]4COCCO4)ccn23)cc(OC(F)F)c1C(=O)NC1CC1
10 to 100 nM

// fetch IC50 given entry COc1cc(-c2cnc3cc(OCC4CCCCN4CC(F)F)ccn23)cc(OC(F)F)c1C(=O)NC1CC1 (stereo not shown)
10 to 100 nM

###

Assay system SIK3 (Homo sapiens, UniProt Q9Y2K2); read-out recorded as pIC50.
pIC50: −log10 of the molar value.

Consider the reported pIC50 for these compounds:
COc1cc(-c2cnc3cc(OCCN4C5CCC4COC5)ccn23)cc(OC(F)F)c1C(=O)NC1CC1
8.00 to 11.00
COc1cc(-c2cnc3cc(OCCN4CCOCC4)ccn23)cc2cc[nH]c(=O)c12
7.00 to 8.00
COc1cc(-c2cnc3cc(OCCN4CCCC4)ccn23)cc2c1C(=O)N(CC(F)(F)F)CC2
8.00 to 11.00
COc1cc(-c2cnc3cc(OCc4nccn4C)ccn23)cc(OC(F)F)c1C(=O)NC1CC1
8.00 to 11.00
COc1cc(-c2cnc3cc(OCCN4CCOC(C5CC5)C4)ccn23)cc(OC(F)F)c1C(=O)NC1CC1 (stereo not drawn)
8.00 to 11.00
COc1cc(-c2cnc3cc(OCCN(C)C)ccn23)cc(OC(F)F)c1C(=O)NC1CC1
8.00 to 11.00

// fetch pIC50 given entry COc1cc(-c2cnc3cc(OCc4cnn(C)c4)ccn23)cc(OC(F)F)c1C(=O)NC1CC1
8.00 to 11.00

// fetch pIC50 given entry COc1cc(-c2cnc3cc(OCC(N)C4CCOC4)ccn23)cc(OC(F)F)c1C(=O)NC1CC1 (stereo not drawn)
8.00 to 11.00

// fetch pIC50 given entry COc1cc(-c2cnc3cc(OCCCN4CCS(=N)(=O)CC4)ccn23)cc(OC(F)F)c1C(=O)NC1CC1
8.00 to 11.00

// fetch pIC50 given entry COc1cc(-c2cnc3cc(OC[C@@H]4CCCN(C5COC5)C4)ccn23)cc(OC(F)F)c1C(=O)NC1CC1
8.00 to 11.00

// fetch pIC50 given entry COc1cc(-c2cnc3cc(OC4C[C@H]5CC[C@@H](C4)N5CCC#N)ccn23)cc(OC(F)F)c1C(=O)NC1CC1 (stereo partly drawn)
8.00 to 11.00

// fetch pIC50 given entry COc1cc(-c2cnc3cc(OCCNc4ccccn4)ccn23)cc(OC(F)F)c1C(=O)NC1CC1
8.00 to 11.00

// fetch pIC50 given entry CCOC(=O)CN1[C@@H]2CC[C@H]1CC(Oc1ccn3c(-c4cc(OC)c(C(=O)NC5CC5)c(OC(F)F)c4)cnc3c1)C2 (stereo partly drawn)
7.00 to 8.00

###

Assay system SIK1 (Homo sapiens, UniProt P57059); read-out recorded as IC50.

COc1cc(-c2cnc3cc(OC[C@@H](N)CC(C)C)ccn23)cc(OC(F)F)c1C(=O)NC1CC1
10 to 100 nM
COc1cc(-c2cnc3cc(OC4CCC(F)(F)C4)ccn23)cc(OC(F)F)c1C(=O)NC1CC1 (stereo not drawn)
10 to 100 nM
COc1cc(-c2cnc3cc(OCc4ccnn4C)ccn23)cc(OC(F)F)c1C(=O)NC1CC1
10 to 100 nM

Shifting focus to the molecule that follows.
// fetch IC50 given entry COc1cc(-c2cnc3cc(OCC4COCCN4C(C)C)ccn23)cc(OC(F)F)c1C(=O)NC1CC1 (stereo not drawn)
10 to 100 nM

###

Assay system SIK1 (Homo sapiens, UniProt P57059); read-out recorded as pIC50.
pIC50: −log10 of the molar value.

COc1cc(-c2cnc3cc(OCC4CCCN4)ccn23)cc(OC(F)F)c1C(=O)NC1CC1 (stereo not shown) [Cpd 154]
7.00 to 8.00
COc1cc(-c2cnc3cc(OCc4cnco4)ccn23)cc(OC(F)F)c1C(=O)NC1CC1 [compound 33]
7.00 to 8.00
COc1cc(-c2cnc3cc(OCCCN4CCCC4)ccn23)cc(OC(F)F)c1C(=O)NC1CC1 [compound 275]
7.00 to 8.00
COc1cc(-c2cnc3cc(OCC4(N)CC4)ccn23)cc(OC(F)F)c1C(=O)NC1CC1 [compound 171]
7.00 to 8.00
COc1cc(-c2cnc3cc(OCc4ccnn4C)ccn23)cc2c1C(=O)N(CC(F)(F)F)CC2 [compound 84]
6.30 to 7.00

Shifting focus to the compound that follows.
// fetch pIC50 given entry CCOC(=O)C1(O)CCN(CCCOc2ccn3c(-c4cc(OC)c(C(=O)NC5CC5)c(OC(F)F)c4)cnc3c2)CC1 [compound 381]
7.00 to 8.00

###

Form field: pIC50 (one value per entry).
Biological target: SIK1 (Homo sapiens, UniProt P57059)
Sequence (P57059 whole entry): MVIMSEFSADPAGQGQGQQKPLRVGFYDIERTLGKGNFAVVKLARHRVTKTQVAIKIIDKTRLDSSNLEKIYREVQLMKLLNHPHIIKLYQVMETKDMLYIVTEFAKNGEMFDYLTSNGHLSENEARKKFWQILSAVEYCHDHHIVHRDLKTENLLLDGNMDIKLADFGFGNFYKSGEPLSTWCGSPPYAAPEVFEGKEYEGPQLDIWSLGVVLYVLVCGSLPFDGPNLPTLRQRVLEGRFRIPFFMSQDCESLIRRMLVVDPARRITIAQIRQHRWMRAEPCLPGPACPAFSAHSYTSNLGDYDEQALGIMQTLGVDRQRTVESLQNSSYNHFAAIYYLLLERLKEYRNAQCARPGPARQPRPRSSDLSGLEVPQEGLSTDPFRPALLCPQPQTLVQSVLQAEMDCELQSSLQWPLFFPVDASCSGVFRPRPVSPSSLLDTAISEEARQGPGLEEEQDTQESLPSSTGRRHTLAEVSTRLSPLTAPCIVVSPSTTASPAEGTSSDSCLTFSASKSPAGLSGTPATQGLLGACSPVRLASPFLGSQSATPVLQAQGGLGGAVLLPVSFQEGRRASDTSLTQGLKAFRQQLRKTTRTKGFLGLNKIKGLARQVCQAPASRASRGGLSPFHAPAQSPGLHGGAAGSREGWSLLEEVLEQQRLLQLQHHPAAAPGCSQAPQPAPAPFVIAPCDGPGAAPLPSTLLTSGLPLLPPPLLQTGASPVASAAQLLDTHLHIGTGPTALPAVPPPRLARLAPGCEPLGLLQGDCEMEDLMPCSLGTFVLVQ
pIC50: −log10 of the molar value.

COc1cc(-c2cnc3cc(OCC(C)(C)N(C)C)ccn23)cc(OC(F)F)c1C(=O)NC1CC1
< 6.30

Write down measured pIC50 (SIK1 (Homo sapiens, UniProt P57059)) for this molecule. COc1cc(-c2cnc3cc(OCCN4CCOCC4C#N)ccn23)cc(OC(F)F)c1C(=O)NC1CC1 (stereo not drawn)
7.00 to 8.00

Write down measured pIC50 (SIK1 (Homo sapiens, UniProt P57059)) for this molecule. COc1cc(-c2cnc3cc(OCCN4CCOC(C)C4)ccn23)cc(OC(F)F)c1C(=O)NC1CC1 (stereo not drawn)
7.00 to 8.00

Write down measured pIC50 (SIK1 (Homo sapiens, UniProt P57059)) for this molecule. COc1cc(-c2cnc3cc(OCC(N)C4CCOCC4)ccn23)cc(OC(F)F)c1C(=O)NC1CC1 (stereo not drawn)
7.00 to 8.00

Write down measured pIC50 (SIK1 (Homo sapiens, UniProt P57059)) for this molecule. CCOC(=O)COc1ccn2c(-c3cc(OC)c(C(=O)NC4CC4)c(OC(F)F)c3)cnc2c1
7.00 to 8.00

Write down measured pIC50 (SIK1 (Homo sapiens, UniProt P57059)) for this molecule. COc1cc(-c2cnc3cc(OCCCN4CCC(N(C)S(C)(=O)=O)CC4)ccn23)cc(OC(F)F)c1C(=O)NC1CC1
7.00 to 8.00

###

pIC50: −log10 of the molar value.
Assay system SIK1 (Homo sapiens, UniProt P57059); read-out recorded as pIC50.

Consider the reported pIC50 for these compounds:
COc1cc(-c2cnc3cc(OCCN(C)C)ccn23)cc2c1C(=O)N(CC#N)CC2
< 6.30
COCCOc1ccn2c(-c3cc(OC)c(C(=O)NC4CC4)c(OC(F)F)c3)cnc2c1
7.00 to 8.00
COc1cc(-c2cnc3cc(OCC4(C)CN(C(=O)OC(C)(C)C)C4)ccn23)cc2c1C(=O)N(CC(F)(F)F)CC2
6.30 to 7.00
CCOC(=O)CN1[C@@H]2CC[C@H]1CC(Oc1ccn3c(-c4cc(OC)c(C(=O)NC5CC5)c(OC(F)F)c4)cnc3c1)C2 (stereo partly drawn)
6.30 to 7.00
COc1cc(-c2cnc3cc(OCCC4CCCN4C(C)C)ccn23)cc(OC(F)F)c1C(=O)NC1CC1 (stereo not drawn)
7.00 to 8.00
COc1cc(-c2cnc3cc(OCC4CCCOC4)ccn23)cc(OC(F)F)c1C(=O)NC1CC1 (stereo not drawn)
8.00 to 11.00
O=C1c2c(cc(-c3cnc4cc(OCCN5CCOCC5)ccn34)cc2OC(F)F)CCN1C1CC1
6.30 to 7.00
COc1cc(-c2cnc3cc(OC4CN(C)C4)ccn23)cc(OC(F)F)c1C(=O)NC1CC1
6.30 to 7.00

Shifting focus to the compound that follows.
// fetch pIC50 given entry COc1cc(-c2cnc3cc(OCC4CCCNC4)ccn23)cc(OC(F)F)c1C(=O)NC1CC1 (stereo not drawn)
8.00 to 11.00

###

Target: SIK1 (Homo sapiens)
pIC50: −log10 of the molar value.
measurement label: pIC50

Consider the reported pIC50 for these molecules:
COc1cc(-c2cnc3cc(OCC4CN(CCO)C4)ccn23)cc(OC(F)F)c1C(=O)NC1CC1
7.00 to 8.00
COc1cc(-c2cnc3cc(OCC4COCCN4)ccn23)cc(OC(F)F)c1C(=O)NC1CC1 (stereo not drawn)
7.00 to 8.00

Write down measured pIC50 (SIK1 (Homo sapiens)) for this molecule. COc1cc(-c2cnc3cc(OCCN4CCOC[C@@H]4C)ccn23)cc(OC(F)F)c1C(=O)NC1CC1
7.00 to 8.00

Write down measured pIC50 (SIK1 (Homo sapiens)) for this molecule. COc1cc(-c2cnc3cc(OCCCN4CCOCC4)ccn23)cc2c1C(=O)N(CC(F)(F)F)CC2
6.30 to 7.00

Write down measured pIC50 (SIK1 (Homo sapiens)) for this molecule. COc1cc(-c2cnc3cc(OCC4CCCCN4C(C)C)ccn23)cc(OC(F)F)c1C(=O)NC1CC1 (stereo not drawn)
6.30 to 7.00

Write down measured pIC50 (SIK1 (Homo sapiens)) for this molecule. COc1cc(-c2cnc3cc(OCCCN4CCn5ccnc5C4)ccn23)cc(OC(F)F)c1C(=O)NC1CC1
7.00 to 8.00

Write down measured pIC50 (SIK1 (Homo sapiens)) for this molecule. COc1cc(-c2cnc3cc(OC4COC4)ccn23)cc(OC(F)F)c1C(=O)NC1CC1
7.00 to 8.00

Write down measured pIC50 (SIK1 (Homo sapiens)) for this molecule. COc1cc(-c2cnc3cc(OCCN(C)C)ccn23)cc(F)c1C(=O)NC1CC1
< 6.30

Write down measured pIC50 (SIK1 (Homo sapiens)) for this molecule. COc1cc(-c2cnc3cc(OCCN(C)c4ccccc4)ccn23)cc(OC(F)F)c1C(=O)NC1CC1
8.00 to 11.00
